Test system: C. tropicalis strain H5343
Assay: Toxicity tests of substrates (growth by absorbance at 600 nm, streak plates)
Format: cell-based
Settings: substrate concentration 0.01563%, 48 h, 30° C., dilution in YPD 1:100
Quick reference for ABS 600.0 nm among some compounds
Give only the figure.

{"compound": "CCCCCCCCCCCCN [Dodecyclamine, Dodecylamine]", "measurement_name": "ABS 600.0 nm", "recorded_measurement": 0.000}
{"compound": "CCCCCC/C=C/CCCCCC [trans-7-tetradecene]", "measurement_name": "ABS 600.0 nm", "recorded_measurement": 0.117}
{"compound": "CCCCCCCCC(=O)CCCCCCCC [9-Heptadecanone]", "measurement_name": "ABS 600.0 nm", "recorded_measurement": 0.100}
{"compound": "CCCCCCCC/C=C\\CCCCCCCCO [HD-Ocenol, oleyl alcohol]", "measurement_name": "ABS 600.0 nm", "recorded_measurement": 0.093}
{"compound": "C=C[C@](C)(O)CC[C@@H]1[C@@]2(C)CCCC(C)(C)[C@@H]2CC[C@@]1(C)O [Indu-Extrakt-sclareol, sclareol]", "measurement_name": "ABS 600.0 nm", "recorded_measurement": 0.083}

Given CCCCC(CC)C(=O)O (stereo not shown) [2-Ethylhexanoic acid] , state its recorded ABS 600.0 nm.
0.099

Please give the measured ABS 600.0 nm for this compound: C=CCCCCCCCCCC [Dodecene]
0.088

What value of ABS 600.0 nm has been recorded for this entry: C=C(C)[C@@H]1CC=C(C)CC1 [S(−) limonene]
0.104

Look up ABS 600.0 nm for this compound: C=CCCCCCCCCCC [C12 a-Olefin]
0.077

Give the measured ABS 600.0 nm of C=C(C)[C@H]1CC=C(C)CC1 [R(+) limonene] .
0.123

Bench note: what ABS 600.0 nm did CCCCCCCCCCCCCCCCOC(=O)CCCCCCCC [Hexadecyl pelargonate] show?
0.112

Entry CCCCCCCCCC(CCCCCCC)C(=O)O (stereo not shown) [2-Heptylundecanoic acid] has what ABS 600.0 nm?
0.082

###

Tested on: C. tropicalis strain H5343
Test: Toxicity tests of substrates (growth by absorbance at 600 nm, streak plates)
Assay type: cell-based
Conditions: substrate concentration 0.13%, 48 h, 30° C., dilution in YPD 1:100
measurement_name: ABS 600.0 nm

{"compound": "C=CCCCCCCCCCC [C12 a-Olefin]", "tested_on": "C. tropicalis strain H5343", "measurement_name": "ABS 600.0 nm", "recorded_measurement": 0.082}
{"compound": "CCCCCCCCCCCCN", "tested_on": "C. tropicalis strain H5343", "measurement_name": "ABS 600.0 nm", "recorded_measurement": 0.000}
{"compound": "CCCCCCCCCCCCCCCCOC(C)=O [Hexadecyl acetate]", "tested_on": "C. tropicalis strain H5343", "measurement_name": "ABS 600.0 nm", "recorded_measurement": 0.083}

Moving on to another compound below.
Can you look up the measured ABS 600.0 nm of CCCCC(CC)C(=O)O (centres unmarked) for me?
0.000

###

System: C. tropicalis strain H5343
Test: Toxicity tests of substrates (growth by absorbance at 600 nm, streak plates)
Format: cell-based
Settings: substrate concentration 0.063%, 48 h, 30° C., dilution in YPD 1:100
Exam item: assign 1.0 to entries whose ABS 600.0 nm is below 0.01 and 0.0 to entries at or above 0.01. Note that a value of exactly 0.01 receives 0.0.

{"compound": "CCCCCCCCCCCCCCCCOC(=O)CCCCCCCC [Hexadecyl pelargonate]", "label": 0.0}

Strictly below 0.01: is that where ABS 600.0 nm of `CCCCCCCCCCCCO` sits?
1.0

Bench note: check whether CCCCCC/C=C/CCCCCC [trans-7-tetradecene] shows ABS 600.0 nm below 0.01
0.0

Is ABS 600.0 nm of CCCCCCCCC(CO)CCCCCC (centres unmarked) strictly below 0.01?
0.0

Please state whether ABS 600.0 nm is below 0.01 for CCCCC(CC)C(=O)O (centres unmarked)
1.0

Dear reviewer, please state whether `CCCCCCCC/C=C\CCCCCCCCO` has ABS 600.0 nm strictly beneath 0.01.
0.0

I'd appreciate it if you could check whether `C=CCCCCCCCCCCCC` has ABS 600.0 nm smaller than 0.01.
0.0

Decide: ABS 600.0 nm of C=C(C)[C@@H]1CC=C(C)CC1 [S(−) limonene] strictly below 0.01?
0.0
